The origin of these recorded values is patent US20130178453A1.

Target: hCB2 (Homo sapiens)
Sequence (P34972 whole entry): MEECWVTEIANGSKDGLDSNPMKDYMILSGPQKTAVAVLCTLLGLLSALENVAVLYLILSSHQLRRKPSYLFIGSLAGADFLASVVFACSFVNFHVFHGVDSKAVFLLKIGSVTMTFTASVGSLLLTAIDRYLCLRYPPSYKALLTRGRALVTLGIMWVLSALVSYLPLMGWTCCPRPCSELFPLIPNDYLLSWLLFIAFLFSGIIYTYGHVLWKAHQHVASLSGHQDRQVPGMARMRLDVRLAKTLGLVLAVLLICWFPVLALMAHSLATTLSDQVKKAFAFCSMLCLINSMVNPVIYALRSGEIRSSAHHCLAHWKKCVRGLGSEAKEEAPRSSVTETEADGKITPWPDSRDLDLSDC
Experiment: hCB2 cAMP agonist assay (HEK-293 cells)
Format: cell-based
pEC50: −log10 of the molar value.
measurement_name: pEC50

Give recorded pEC50. CCCn1c(C(=O)c2cn(CC3CCOCC3)c3ccccc23)cc2ccsc21 [Compound I-41]
> 7.00

Give recorded pEC50. CCCn1c(C)c(C(=O)c2cc3ccsc3[nH]2)c2ccccc21 [Compound I-74]
6.00 to 7.00

Give recorded pEC50. CCCn1c(C)c(C(=O)c2cc3ccsc3n2CC)c2ccccc21 [Compound I-54]
> 7.00

Give recorded pEC50. CCCn1c(C)c(C(=O)c2cc3scnc3n2CC)c2ccccc21 [Compound I-31]
> 7.00

Give recorded pEC50. CCCn1c(C(=O)c2cn(C)c3ccccc23)cc2ccsc21 [Compound I-47]
> 7.00

Give recorded pEC50. CCCn1c(C(=O)c2cn(CC)c3ccccc23)cc2ccsc21 [Compound I-42]
> 7.00

Give recorded pEC50. CCCn1c(C)c(C(=O)c2cc3ccsc3n2CCC)c2cc(Cl)ccc21 [Compound I-52]
6.00 to 7.00

Give recorded pEC50. CCCn1c(C)c(C(=O)c2cc3ccsc3n2CCC)c2cc(OC)ccc21 [Compound I-61]
6.00 to 7.00

Give recorded pEC50. CCn1c(C(=O)c2cn(CC3CCOCC3)c3ccccc23)cc2ccsc21 [Compound I-16]
> 7.00

Give recorded pEC50. CCCn1c(C(=O)c2c(C)n(CC3CCOCC3)c3ccccc23)cc2ccsc21 [Compound I-66]
> 7.00

Give recorded pEC50. CCCn1c(C(=O)c2c(C)n(CCN3CCOCC3)c3sccc23)cc2ccccc21 [Compound I-11]
> 7.00

Give recorded pEC50. CCCCn1c(C)c(C(=O)c2cc3ccsc3n2CCC)c2ccccc21 [Compound I-58]
> 7.00

Give recorded pEC50. CCCn1cc(C(=O)c2cc3ccsc3n2CC)c2ccncc21 [Compound I-23]
> 7.00

Give recorded pEC50. CCn1c(C(=O)c2c3c(n(CC4CCOCC4)c2C)CCCC3)cc2ccsc21 [Compound I-86]
> 7.00

Give recorded pEC50. CCCn1c(C(=O)c2c(C)n(CCC)c3sccc23)cc2ccccc21 [Compound I-14]
6.00 to 7.00

Give recorded pEC50. CCCn1cc(C(=O)c2cc3ccsc3n2CC)c2ccccc21 [Compound I-70]
> 7.00

Give recorded pEC50. C=CCn1cc(C(=O)c2cc3ccsc3n2CC)c2cnccc21 [Compound I-21]
5.00 to 6.00

Give recorded pEC50. CCCn1c(C)c(C(=O)c2cc3sccc3s2)c2ccccc21 [Compound I-20]
6.00 to 7.00

Give recorded pEC50. CCCn1c(C)c(C(=O)c2cc3ccsc3n2CC)c2c1CCCC2 [Compound I-85]
> 7.00
